Taken from patent US12492188B2.

- assay.system: human TLR9 (Homo sapiens, UniProt Q9NR96)
- Construct: host or cells: HEK-Blue cells (HEK293-derived reporter line)
- Sequence (Q9NR96 26-1032): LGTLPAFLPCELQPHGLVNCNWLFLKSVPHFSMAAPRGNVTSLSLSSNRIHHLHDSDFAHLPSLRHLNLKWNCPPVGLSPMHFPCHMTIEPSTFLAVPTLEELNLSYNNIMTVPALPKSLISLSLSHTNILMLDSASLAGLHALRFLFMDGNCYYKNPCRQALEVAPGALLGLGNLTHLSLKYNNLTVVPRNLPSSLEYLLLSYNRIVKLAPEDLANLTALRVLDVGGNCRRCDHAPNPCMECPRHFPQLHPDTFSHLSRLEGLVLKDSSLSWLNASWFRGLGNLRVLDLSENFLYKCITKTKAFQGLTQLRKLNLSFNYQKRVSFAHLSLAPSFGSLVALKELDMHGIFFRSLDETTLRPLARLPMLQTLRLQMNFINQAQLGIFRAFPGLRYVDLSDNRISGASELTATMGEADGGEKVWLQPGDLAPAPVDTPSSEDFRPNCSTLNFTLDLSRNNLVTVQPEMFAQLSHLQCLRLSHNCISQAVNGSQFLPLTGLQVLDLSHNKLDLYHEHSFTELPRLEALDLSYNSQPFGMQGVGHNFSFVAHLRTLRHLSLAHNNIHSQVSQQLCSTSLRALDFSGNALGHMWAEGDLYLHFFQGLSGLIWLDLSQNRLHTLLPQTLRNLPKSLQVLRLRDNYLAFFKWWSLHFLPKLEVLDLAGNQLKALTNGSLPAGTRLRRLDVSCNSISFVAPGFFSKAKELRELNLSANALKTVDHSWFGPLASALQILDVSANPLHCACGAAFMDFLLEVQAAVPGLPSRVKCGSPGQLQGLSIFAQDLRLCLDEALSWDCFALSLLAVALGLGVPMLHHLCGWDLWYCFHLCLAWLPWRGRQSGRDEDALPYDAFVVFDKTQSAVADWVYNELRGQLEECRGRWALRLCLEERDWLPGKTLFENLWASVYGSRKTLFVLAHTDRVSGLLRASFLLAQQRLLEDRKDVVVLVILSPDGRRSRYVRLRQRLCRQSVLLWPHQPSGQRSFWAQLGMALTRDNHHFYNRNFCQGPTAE
- method.notes: TLR9 inhibition reporter assay (HEK-Blue cells, secreted embryonic alkaline phosphatase reporter)
- Assay type: cell-based
- measurement.context: HEK-Blue cells overexpressing human TLR9, stimulated with ODN2006 5 nM; read-out: TLR 9 IC50
Item-by-item account of pIC50
Scale: negative log10 of molar concentration, which is what pIC50 denotes.

Worked cases, answers included:
[
  {
    "compound": "Cc1cc(C2CCN(C3CC4CCC(C3)N4C3CCOCC3)CC2)cc2c1nc(-c1ccc(S(C)(=O)=O)cc1)n2C (single isomer, unassigned) [Example 161]",
    "readout.name": "pIC50",
    "readout.value": 6.68
  },
  {
    "compound": "Cc1cc(-c2ccc(CN3CCC(N4CCC4)CC3)cc2)cc2c1nc(-c1ccc(S(C)(=O)=O)cc1)n2C [Example 402]",
    "readout.name": "pIC50",
    "readout.value": 8.41
  }
]

Let us move to another entry and its pIC50.
Q. I am curious: what pIC50 value has been reported for COCCN1C2CCC1CC(N1CCC(c3cc4nc(-c5ccc(S(C)(=O)=O)cc5)n(C)c4cc3F)CC1)C2 (stereo not drawn) [Example 258] ?
A. 7.00
